# EXPERIMENTAL_DETAILS: Stability in human plasma after 120 mins by LC/MS analysis
# Type: ADME, cell-free
# SETTINGS: read-out: Stability
ENDPOINT_LABEL: remaining at 2 h

Ask | Item CC(C)(N)CNC(=O)O[C@H]1CCC[C@@]2(C1)OOC1(O2)C2CC3CC(C2)CC1C3 (stereo partly specified) has what recorded remaining at 2 h?
Reply | 97%

----------
# EXPERIMENTAL_DETAILS: Apparent volume of distribution during terminal phase in Plasmodium chabaudi infected Balb/c mouse at 50 mg/kg, ip by LC-MS/MS analysis
# Assay type: ADME, organism-based
# SETTINGS: in vivo, read-out: Vz/F
ENDPOINT_LABEL: Vd/F (L/kg)
Numbers only, in L/kg.

Ask | What value of Vd/F has been reported for the following compound? O=C(O[C@H]1CCC[C@@]2(C1)OOC1(O2)C2CC3CC(C2)CC1C3)N1CCCC[C@@H]1[C@@H](O)c1cc(C(F)(F)F)nc2c(C(F)(F)F)cccc12 (stereo partly specified)
Reply | 45.5
